# Tested on: rat stomach parietal cells
# TEST PROTOCOL: inhibition of acid secretion in rat stomach parietal cells (14C-aminopyrine accumulation)
# Format: cell-based
# SETTINGS: histamine (1 mM) and isobutyl methylxanthine (0.1 mM)
pIC50: −log10 of the molar value.

MOLECULE: CC1(CN2CCC(n3c(=O)[nH]c4ccccc43)CC2)OCc2ccccc2-n2cccc21 (stereo not shown)
pIC50: ~6.52

---

# TARGET SYSTEM: calmodulin (Bos taurus, UniProt P62157)
# TEST PROTOCOL: inhibition of the calmodulin induced activation of bovine c-AMP phosphodiesterase
# SETTINGS: in vitro; read-out: concentration inhibiting calmodulin-induced activation of phosphodiesterase by 50%
pIC50: −log10 of the molar value.
ATTRIBUTE MEASURED: pIC50

COMPOUND: CC1(CN2CCC(n3c(=O)[nH]c4ccccc43)CC2)OCc2ccccc2-n2cccc21 (stereo not shown) [Example 1]
TARGET SYSTEM: calmodulin (Bos taurus, UniProt P62157)
ATTRIBUTE MEASURED: pIC50
ASSAY VALUE: ~5.52

Reference source: patent US4758559A
